This collection of values is drawn from the supplement of paper PMC11061612.

Recorded Bliss excess values for a group of compounds are listed next.
System: DEL (T-Cell Non-Hodgkin's Lymphoma);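 also: after 72 h of two-drug dosing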
Test: Bliss excess, mean over the matrix (fraction); higher = more synergy
measured-metric: Bliss excess

compound	measurement-target	measured-result
CN(C)CCCOc1ccc(-c2ccc3ncc4c(c3c2)n(C2CCOCC2)c(=O)n4C)cn1 [AZD0156] + O=C(c1cc(Cc2n[nH]c(=O)c3ccccc23)ccc1F)N1CCN(C(=O)C2CC2)CC1 [Olaparib] (first compound max 3 µM, partner max 3 µM)	DEL (T-Cell Non-Hodgkin's Lymphoma)	0.312
CC1(C)CCC(CN2CCN(c3ccc(C(=O)NS(=O)(=O)c4ccc(NCC5CCOCC5)c([N+](=O)[O-])c4)c(Oc4cnc5[nH]ccc5c4)c3)CC2)=C(c2ccc(Cl)cc2)C1 [Venetoclax] + COc1cc(Nc2ncc3c(n2)-c2ccc(Cl)cc2C(c2c(F)cccc2OC)=NC3)ccc1C(=O)O [Alisertib] (first compound max 1 µM, 7x7, partner max 10 µM)	DEL (T-Cell Non-Hodgkin's Lymphoma)	0.0094
C=CCn1c(=O)c2cnc(Nc3ccc(N4CCN(C)CC4)cc3)nc2n1-c1cccc(C(C)(C)O)n1 [AZD1775] + C[C@@H]1COCCN1C2=NC(=NC(=C2)C3(CC3)[S@](=N)(=O)C)C4=C5C=CNC5=NC=C4 [AZD6738] (first compound max 1 µM, partner max 10 µM)	DEL (T-Cell Non-Hodgkin's Lymphoma)	0.0252
